assay: Mouse PK analysis, plasma; format: in vivo; details: female, CD-1, mouse, plasma, iv; dosed intravenously (i.v.)
reportedMetric: Cmax

So for CC1CCN(C2CCN(S(=O)(=O)c3ccc(Cl)cc3)CC2)CC1 , the logged Cmax turned out to be 191 to 742 ng/mL

Next molecule, Cmax to be filled in.
So for CC1CCN(C2CCN(S(=O)(=O)c3ccc(OC(F)F)cc3)CC2)CC1 , the logged Cmax turned out to be 191 to 742 ng/mL

###

Reported melting point values for the following molecules.

Sample answers from the record:
So for Cc1ccc(NC2CCN(S(=O)(=O)c3c(C)cc(C)cc3C)CC2)cc1 , the logged melting point turned out to be 148 to 151 °C

So for CC1CCN(C2CCN(S(=O)(=O)c3ccc(Br)cc3)CC2)CC1 , the logged melting point turned out to be 165 to 168 °C

So for CC1CCN(C2CCN(S(=O)(=O)c3ccc([N+](=O)[O-])c(C(F)(F)F)c3)CC2)CC1 , the logged melting point turned out to be 175 to 178 °C

So for Cc1nc(Cl)sc1S(=O)(=O)N1CCC(N2CCC(C)CC2)CC1 , the logged melting point turned out to be 117 to 119 °C

So for CCCOc1ccc(S(=O)(=O)N2CCC(N3CCC(C)CC3)CC2)cc1 , the logged melting point turned out to be 118 to 121 °C

So for CCCC(=O)NC1CCN(S(=O)(=O)c2c(C)cc(C)cc2C)CC1 , the logged melting point turned out to be 144 to 147 °C

More entries:
So for CC1CCN(C2CCN(S(=O)(=O)c3ccc(OC(F)(F)F)cc3)CC2)CC1 , the logged melting point turned out to be 168 to 170 °C

So for CC1CCN(C2CCN(S(=O)(=O)c3cn(C)cn3)CC2)CC1 , the logged melting point turned out to be 139 to 142 °C

So for CC1CCN(CC2CCN(S(=O)(=O)c3ccc(-c4ccccc4)cc3)CC2)CC1 , the logged melting point turned out to be 148 to 151 °C

So for COc1cc(C)ccc1S(=O)(=O)N1CCC(N2CCC(C)CC2)CC1 , the logged melting point turned out to be 95 to 98 °C
